target: PFKFB3 (Homo sapiens (Human), UniProt Q16875); experiment: PFKFB3 kinase activity, Method A (F-2,6-P2 production, coupled PPi-PFK/NADH assay); assay type: biochemical
Sequence (Q16875 whole entry): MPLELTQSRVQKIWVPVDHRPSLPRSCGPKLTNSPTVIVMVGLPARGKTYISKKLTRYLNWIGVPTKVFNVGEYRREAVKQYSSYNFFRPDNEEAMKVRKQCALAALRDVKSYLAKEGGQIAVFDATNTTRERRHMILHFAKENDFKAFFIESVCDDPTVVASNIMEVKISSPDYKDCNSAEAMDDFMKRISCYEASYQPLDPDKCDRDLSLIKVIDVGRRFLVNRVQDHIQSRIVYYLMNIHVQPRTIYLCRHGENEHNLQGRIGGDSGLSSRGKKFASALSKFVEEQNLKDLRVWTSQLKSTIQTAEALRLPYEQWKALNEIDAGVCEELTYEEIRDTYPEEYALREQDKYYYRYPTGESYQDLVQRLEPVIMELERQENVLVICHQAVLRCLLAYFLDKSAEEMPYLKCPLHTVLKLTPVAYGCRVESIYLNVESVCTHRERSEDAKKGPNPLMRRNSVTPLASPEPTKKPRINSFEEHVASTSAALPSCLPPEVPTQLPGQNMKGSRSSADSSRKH
Listed compounds paired with reported IC50
TEST_READOUT: IC50 (nM)

In [3]: df
Out[3]:
                              record_smiles  test_readout  display_unit  value_observed
0  Cc1nc(-c2ccc(S(=O)(=O)Nc3cccc(-c4nnn[nH]4)c3)s2)cs1          IC50            nM             310
1  O=C(O)c1cccc(NS(=O)(=O)c2ccc(-c3ccccn3)s2)c1          IC50            nM            6690
2  O=S(=O)(Nc1cccc(-c2nnn[nH]2)c1)c1cccc(-c2cc(Cl)cc(Cl)c2)c1          IC50            nM            2540
3  O=S(=O)(Nc1cccc(-c2nnn[nH]2)c1)c1ccc(-c2cnco2)s1          IC50            nM            3910
4  Cc1c(S(=O)(=O)Nc2cccc(C(=O)O)n2)sc2ccc(C(C)C)cc12          IC50            nM             810
5  O=S(=O)(Nc1cccc(-c2nnn[nH]2)c1)c1ccc2ccccc2c1          IC50            nM             850
6  COc1ccc(-c2cccc(S(=O)(=O)Nc3cccc(-c4nnn[nH]4)c3)c2)cc1          IC50            nM             720
7  O=S(=O)(Nc1cccc(-c2nnn[nH]2)c1)c1ccc(Cl)c(Cl)c1Cl          IC50            nM             280

---

In this section we review reported IC50 values for a set of molecules.
biological target: PFKFB3 (Homo sapiens (Human), UniProt Q16875); assay: PFKFB3 kinase activity, Method A (F-2,6-P2 production, coupled PPi-PFK/NADH assay); assay type: biochemical
TEST_READOUT: IC50 (nM)

In [3]: df
Out[3]:
                              record_smiles  test_readout  value_observed
0  Cc1c(S(=O)(=O)Nc2cncc(C(=O)O)c2)sc2ccc(C(C)C)cc12          IC50             730
1  Cc1nc(NS(=O)(=O)c2sc3ccc(C(C)C)cc3c2C)sc1C(=O)O          IC50             610
2  O=S(=O)(Nc1cccc(-c2nnn[nH]2)c1)c1ccc(-c2cnco2)cc1          IC50            8450
3  O=S(=O)(Nc1cccc(-c2nnn[nH]2)c1)c1cccc(-c2ccc(F)cc2)c1          IC50             450
4  O=C(O)c1cccc(NS(=O)(=O)c2ccc(-c3ccon3)s2)c1          IC50            6310

---

# IC50 per record follows
target: UniProt:Q16877
Sequence (Q16877 whole entry): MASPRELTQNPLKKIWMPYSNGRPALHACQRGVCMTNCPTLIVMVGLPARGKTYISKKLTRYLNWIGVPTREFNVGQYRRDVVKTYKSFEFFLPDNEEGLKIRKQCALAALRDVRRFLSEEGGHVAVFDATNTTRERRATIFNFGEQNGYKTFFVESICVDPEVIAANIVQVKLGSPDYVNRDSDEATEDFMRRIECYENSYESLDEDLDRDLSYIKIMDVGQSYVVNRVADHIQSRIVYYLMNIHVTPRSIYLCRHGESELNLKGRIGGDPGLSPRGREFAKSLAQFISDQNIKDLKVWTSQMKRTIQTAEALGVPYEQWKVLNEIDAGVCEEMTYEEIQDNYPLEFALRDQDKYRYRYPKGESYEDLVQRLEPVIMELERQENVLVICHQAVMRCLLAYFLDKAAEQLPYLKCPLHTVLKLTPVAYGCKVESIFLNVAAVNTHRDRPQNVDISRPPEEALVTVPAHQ
TEST_READOUT: IC50 (µM)

>>> print(df.to_string())
                              record_smiles  test_readout  display_unit  value_observed
0  Cc1c(S(=O)(=O)Nc2cccc(C(=O)O)c2)sc2c(Cl)cccc12          IC50            µM             0.2
1  O=S(=O)(Nc1cccc(-c2nnn[nH]2)c1)c1ccc(Br)cc1F          IC50            µM            1.83
2  COc1cccc2c(C)c(S(=O)(=O)Nc3cccc(C(=O)O)c3)sc12          IC50            µM            0.42
3  Cc1c(S(=O)(=O)Nc2cccc(C(=O)O)c2)sc2ccc(Cl)cc12          IC50            µM            0.13
4  O=S(=O)(Nc1cccc(-c2nnn[nH]2)c1)c1cccc(-c2ccccc2)c1          IC50            µM            0.39

---

target: UniProt Q16875; test: PFKFB3 kinase activity, Method B (ADP-Glo Kinase Assay); assay type: biochemical
pIC50: −log10 of the molar value.
TEST_READOUT: pIC50

In [3]: df
Out[3]:
                                   compound     target_desc  value_observed
0  O=S(=O)(Nc1cccc(-c2nnn[nH]2)c1)c1ccc(-c2cc(F)cc(F)c2)s1 [Example 23]  UniProt Q16875            6.21
1  Cc1c(S(=O)(=O)Nc2ccc(O)c(C(=O)O)c2)sc2ccc(Cl)cc12 [Example 138]  UniProt Q16875            5.04
2  CSc1nccc(-c2ccc(S(=O)(=O)Nc3cccc(C(=O)O)c3)s2)n1 [Example 61]  UniProt Q16875            5.65
3  O=S(=O)(Nc1cccc(-c2nnn[nH]2)c1)c1ccc(-c2ccccc2)s1 [Example 60]  UniProt Q16875            5.89

---

Reported IC50 values follow for various compounds
molecular target: PFKFB3 (Homo sapiens (Human), UniProt Q16875); assay: PFKFB3 kinase activity, Method A (F-2,6-P2 production, coupled PPi-PFK/NADH assay); assay type: biochemical
TEST_READOUT: IC50

                              record_smiles  test_readout  value_observed
0  NC(=O)c1cccc(-c2ccc(S(=O)(=O)Nc3cccc(-c4nnn[nH]4)c3)s2)c1          IC50          540 nM
1  O=S(=O)(Nc1cccc(-c2nnn[nH]2)c1)c1cccc(-c2ccc(C(F)(F)F)cc2)c1          IC50         5750 nM
2  Cc1c(S(=O)(=O)Nc2cccc(C(=O)O)c2)sc2ccc(C(C)C)cc12          IC50           30 nM
3  Cc1c(S(=O)(=O)Nc2cccc(C(=O)O)c2)sc2ccc(Cl)cc12          IC50          180 nM
4  Cc1cc(Cl)cc(Cl)c1S(=O)(=O)Nc1cccc(-c2nnn[nH]2)c1          IC50         1780 nM
5  O=S(=O)(Nc1cccc(-c2nnn[nH]2)c1)c1ccc(-c2ccccc2)cc1          IC50         1390 nM
6  Cc1c(S(=O)(=O)Nc2cccc(C(=O)O)c2)oc2ccc(C(C)C)cc12          IC50          280 nM
7  O=S(=O)(Nc1cccc(-c2nnn[nH]2)c1)c1ccc(Br)cc1C(F)(F)F          IC50         1120 nM

---

tested on: NUGC-3 cells; test: Quantification of F-2,6-P2 in NUGC-3 cells; assay type: cell-based; conditions: Homo sapiens, read-out: IC50 based on quantification of F-2,6-P2
pIC50: −log10 of the molar value.
TEST_READOUT: pIC50

>>> df
                                   molecule   target_desc  value_observed
0  COC(=O)c1cccc(NS(=O)(=O)c2sc3ccc(Cl)cc3c2C)c1 [Example 74]  NUGC-3 cells            5.40

---

Molecular target: PFKFB3 (Homo sapiens (Human), UniProt Q16875)
Experiment: PFKFB3 kinase activity, Method B (ADP-Glo Kinase Assay)
Format: biochemical
Description: The PFKFB3 (placenta form) and PFKFB4 were produced and purified to homogeneity from E. coli at Biovitrum and at Sprint Bioscience. All other reagents were purchased from commercial sources. […] Method B: The kinase activity of the bi-functional enzyme is readily quantified based on the production of ADP and F-2,6-P2 from ATP and F6P. The ADP is detected with a kit, ADP-Glo™ Kinase Assay^(a-e), from Promega. […] The light generated is measured using a luminescence counter (1450 MicroBeta TriLux). […]
pIC50: −log10 of the molar value.
Reported values of pIC50 for individual entries
TEST_READOUT: pIC50

>>> df
                                   compound                               target_desc  value_observed
0  Cc1ccc2sc(S(=O)(=O)Nc3cccc(-c4nnn[nH]4)c3)c(C)c2c1 [Example 33]  PFKFB3 (Homo sapiens (Human), UniProt Q16875)            6.89
1  Cc1c(S(=O)(=O)Nc2cccc(-c3nnn[nH]3)c2)sc2ccccc12 [Example 39]  PFKFB3 (Homo sapiens (Human), UniProt Q16875)            6.55
2  O=C(O)c1cccc(NS(=O)(=O)c2cccc(-c3ccccc3)c2)c1 [Example 80]  PFKFB3 (Homo sapiens (Human), UniProt Q16875)            5.51
3  O=S(=O)(Nc1cccc(-c2nnn[nH]2)c1)c1cc(Cl)c(Cl)cc1Cl [Example 71]  PFKFB3 (Homo sapiens (Human), UniProt Q16875)            5.62
4  O=C(O)c1cccc(NS(=O)(=O)c2cc(-c3ccccc3O)c(Cl)s2)c1O [Example 137]  PFKFB3 (Homo sapiens (Human), UniProt Q16875)            5.29
5  O=S(=O)(Nc1cccc(-c2nnn[nH]2)c1)c1ccc(-c2cccc(C(F)(F)F)c2)s1 [Example 99]  PFKFB3 (Homo sapiens (Human), UniProt Q16875)            5.85
6  O=S(=O)(Nc1cccc(-c2nnn[nH]2)c1)c1ccc(Cl)c2nonc12 [Example 73]  PFKFB3 (Homo sapiens (Human), UniProt Q16875)            6.24
7  O=S(=O)(Nc1cccc(-c2nnn[nH]2)c1)c1ccc(-c2ccc(Cl)c(Cl)c2)cc1 [Example 86]  PFKFB3 (Homo sapiens (Human), UniProt Q16875)            5.55
